MEASURED PROPERTY: melting point

q: Need melting point of `COc1cccc(OC)c1NC(=O)Cc1c(-c2ccccc2)c2cc(C)c(Cl)cc2oc1=O` , thanks.
a: 247 to 249 °C

q: Also check `COc1cccc(O)c1NC(=O)Cc1c(-c2ccccc2)c2cc3c(cc2oc1=O)CCC3`
a: 179 to 181 °C

q: Also check `CC(C)c1cccc(C(C)C)c1NC(=O)Cc1c(-c2ccccc2)c2cc(CN3CCOCC3)c(Cl)cc2oc1=O`
a: 296 to 298 °C

q: Also check `Cc1cc2oc(=O)c(CC(=O)Nc3c(C(C)C)cccc3C(C)C)c(-c3ccccc3)c2cc1C`
a: 252 to 253 °C

q: Also check `O=C(Cc1c(-c2ccccc2)c2cc3c(cc2oc1=O)CCC3)Nc1ccc(F)cc1C(F)(F)F`
a: 186 to 187 °C

q: Also check `CC(C)c1cccc(C(C)C)c1NC(=O)Cc1c(-c2ccccc2)c2cc(F)c(F)cc2oc1=O`
a: 255 to 256 °C

q: Also check `O=C(Cc1c(-c2ccccc2)c2cc3c(cc2oc1=O)C(=O)CC3)Nc1ccc(Cl)cc1C(F)(F)F`
a: 189 to 192 °C

q: Also check `CCOc1cccc(OCC)c1NC(=O)Cc1c(-c2ccccc2)c2cc(Cl)c(Cl)cc2oc1=O`
a: 246 to 247 °C

====

Provide the reported melting point of each item.

q: Need melting point of `O=C(Cc1c(-c2ccccc2)c2cc3c(cc2oc1=O)CCC3)Nc1c(OC2CCCC2)cccc1OC1CCCC1` , thanks.
a: 224 to 226 °C

q: Also check `CCc1cccc(CC)c1NC(=O)Cc1c(-c2ccccc2)c2cc(C)c(C)cc2oc1=O`
a: 259 to 260 °C

q: Also check `CC(C)c1cccc(C(C)C)c1NC(=O)Cc1c(-c2ccccc2)c2cc(CN(C)C)c(Cl)cc2oc1=O`
a: 301 to 303 °C

q: Also check `CCOc1cccc(OCC)c1NC(=O)Cc1c(-c2ccccc2)c2cc(C)c(C)cc2oc1=O`
a: 230 to 231 °C

====

Provide the reported melting point of each item.

q: Need melting point of COc1cccc(OC)c1NC(=O)Cc1c(-c2ccccc2C)c2cc(Cl)c(C)cc2oc1=O [Example 23] , thanks.
a: 176 to 177 °C

q: Also check Cc1cc2c(-c3cccnc3)c(CC(=O)Nc3ccc(F)cc3C(F)(F)F)c(=O)oc2cc1Cl [Example 330]
a: 213 to 215 °C

q: Also check Cc1cc2oc(=O)c(CC(=O)Nc3c(C(C)C)cccc3C(C)C)c(-c3ccccc3Cl)c2cc1Cl [Example 25]
a: 245 to 246 °C

q: Also check CCN(CC)Cc1cc2c(-c3ccccc3)c(CC(=O)Nc3ccc(Cl)cc3C(F)(F)F)c(=O)oc2cc1Cl [Example 182]
a: 163 to 164 °C

q: Also check COc1cccc(OC)c1NC(=O)Cc1c(-c2ccccc2)c2cc(CN3CCOCC3)c(Cl)cc2oc1=O [Example 71]
a: 209 to 211 °C

q: Also check O=C(Cc1c(-c2ccccc2)c2cc(CN3CCN(c4ncccn4)CC3)c(Cl)cc2oc1=O)Nc1ccc(F)cc1C(F)(F)F [Example 273]
a: 203 to 205 °C

q: Also check O=C(Cc1c(-c2ccccc2)c2cc3c(cc2oc1=O)C(=O)CC3)Nc1ccc(F)cc1C(F)(F)F [Example 88]
a: 180 to 183 °C

q: Also check Cc1cc2c(-c3ccccc3)c(CC(=O)Nc3c(C(C)C)cccc3C(C)C)c(=O)oc2cc1Cl [Example 46]
a: 280 to 282 °C

q: Also check CCOc1cccc(OCC)c1NC(=O)Cc1c(-c2ccccc2)c2cc3c(cc2oc1=O)CCC3 [Example 2]
a: 216 to 219 °C

q: Also check CCc1cccc(CC)c1NC(=O)Cc1c(-c2ccccc2)c2cc3c(cc2oc1=O)CCC3 [Example 4]
a: 279 to 281 °C

q: Also check O=C(Cc1c(-c2ccccc2)c2cc3c(cc2oc1=O)CCC3)Nc1ccccc1OC(F)(F)F [Example 12]
a: 191 to 194 °C

q: Also check COc1cccc(OC)c1NC(=O)Cc1c(-c2ccccc2)c2cc(CN(C)C)c(Cl)cc2oc1=O [Example 70]
a: 221 to 223 °C

q: Also check COc1cccc(OC)c1NC(=O)Cc1c(-c2ccccc2)c2cc(Cl)c(Cl)cc2oc1=O [Example 36]
a: 249 to 250 °C

q: Also check O=C(Cc1c(-c2ccccc2)c2cc3c(cc2oc1=O)CCC3)Nc1ccc(Cl)cc1C(F)(F)F [Compound C]
a: 198 to 200 °C

q: Also check CC(C)c1cccc(C(C)C)c1NC(=O)Cc1c(-c2ccccc2)c2cc3c(cc2oc1=O)CCC3 [Example 3]
a: 261 to 263 °C

q: Also check CNCc1cc2c(-c3ccccc3)c(CC(=O)Nc3ccc(Cl)cc3C(F)(F)F)c(=O)oc2cc1Cl [Example 180]
a: 205 to 207 °C

q: Also check COc1cc(O)cc(OC)c1NC(=O)Cc1c(-c2ccccc2)c2cc3c(cc2oc1=O)CCC3 [Example 10]
a: 160 °C (dec.)
